System: HSV-2
Test: In vitro antiviral testing, CPE inhibition, HSV-2
Type: cell-based
Conditions: Human alphaherpesvirus 2, read-out: EC50 HSV-2 CPE inhibition
RECORDED ENDPOINT: pEC50
Give only the number. pEC50 is defined as minus log10 of concentration in molar units.

Exam item: Under HSV-2, report pEC50 for Nc1nc2c(ncn2COCCO)c(=O)[nH]1
Marked response: 5.18

====

Assay: Transport of drug/prodrugs across freshly excised rabbit cornea
Assay type: in vitro ADME
Settings: New Zealand albino, rabbit, pH 7.4
RECORDED ENDPOINT: Papp at 3 h, 1 mM (×10⁻⁶ cm/s)
I only need the number, in ×10⁻⁶ cm/s, no unit after it.

Exam item: Input Nc1nc2c(ncn2COCCO)c(=O)[nH]1 , output reported Papp at 3 h, 1 mM.
Marked response: 2.33

====

Tested on: HSV-1
Experiment: In vitro antiviral testing, CPE inhibition, HSV-1
Format: cell-based
Settings: Human alphaherpesvirus 1, read-out: EC50 HSV-1 CPE inhibition
RECORDED ENDPOINT: EC50 (µM)
I only need the number, in µM, no unit after it.

Exam item: Input Nc1nc2c(ncn2COCCO)c(=O)[nH]1 , output reported EC50.
Marked response: 7.1
